Experiment: APR_HepG2_CellLoss_72hr: Apredica 72-hour HepG2 Assay for Cell Loss (AID 2282915)
Details: high-content imaging
The source made the active and inactive calls. Rule for the calls: active = hit-call score of the fitted dose curve at least 0.9, where 1 is the maximum; inactive = score below 0.9.
Hi there, use one of these labels in your reply, thanks! active, inactive

Worked cases, answers included:
# COMPOUND, CLASSIFICATION
rows = [
    ("COc1cccc(-c2ccc(/C=C\\CN3CCCCCC3)cc2Cl)c1", "active"),
    ("CC/C(=C\\C(=N/O)C(N)=O)C(C)[N+](=O)[O-] (stereo not given)", "inactive"),
    ("Cc1c(-c2cccnc2)c2ccccc2n1CCCCC(=O)O", "inactive"),
    ("COC(=O)CC(=O)OC", "inactive"),
]

Let's switch to this compound now.
Ask: // outcome(item) with item = CC(C)=CCCC(C)CCO (stereo not given)
Result: active

----------
Read-out: Keratin 19 (KRT19), KRT19 (gene 3880)
Assay: LTEA_HepaRG_KRT19: Life Technologies and Expression Analysis (LTEA) Assay for Keratin 19 (KRT19) using HepaRG (AID 2283512)
Details: mRNA level, 48 h; actives raise or lower the signal
Active and inactive are the calls of the source. The calls were made as follows: active = hit-call score of the fitted dose curve at least 0.9, where 1 is the maximum; inactive = score below 0.9.
Allowed answers: active, inactive

Record excerpt, results attached:
# ENTRY SMILES, CLASSIFICATION
records = [
    ("CCCCCCc1ccc(O)cc1O", "inactive"),
    ("Nc1nc2ncc(CNc3ccc(C(=O)N[C@@H](CCC(=O)O)C(=O)O)cc3)nc2c(=O)[nH]1", "inactive"),
]

Ask: Which outcome did this test record for the molecule `CCOCCO` ?
Result: inactive

Ask: Answer briefly: the call reported for `Cc1[nH]cnc1C[C@H]1CCc2c(C)c3ccccc3n2C1=O` in this assay.
Result: active

----------
Read-out: Transforming Growth Factor (TGFB1), TGFB1 (gene 7040)
Assay: LTEA_HepaRG_TGFB1: Life Technologies and Expression Analysis (LTEA) Assay for Transforming Growth Factor (TGFB1) Transporter using HepaRG (AID 2283533)
Settings: mRNA level, 48 h; actives raise or lower the signal
Activity calls are given as the source filed them. Rule for the calls: active = hit-call score of the fitted dose curve at least 0.9, where 1 is the maximum; inactive = score below 0.9.
PROPERTY LABEL: AC50

# COMPOUND, PROPERTY LABEL, RESULT
records = [
    ("O=C1OC(=O)C2C3C=CC(C3)C12 (stereo not given)", "AC50", "inactive"),
    ("CCc1cc(SCc2sc(-c3ccc(C(F)(F)F)cc3)nc2CN2CCN(c3ccc(OC)cc3)CC2)ccc1OCC(=O)O", "AC50", "28.9 µM (active)"),
    ("CCOCCOCCOCCO", "AC50", "inactive"),
    ("Cc1ccc(N)cc1O", "AC50", "inactive"),
]

Now turn to the next compound.
Reported AC50 for `CCn1nc(Cc2ccccc2)cc1C1CCN(C[C@H]2C[C@H](N(C)[C@@H](C(=O)O)C(C)C)C[C@@H]2c2cccc(F)c2)CC1` was 73.3 µM (active)

----------
Read-out: Protein phosphatase 2A (PPP2R4), PTPA (gene 5524)
Test: LTEA_HepaRG_PPP2R4: Life Technologies and Expression Analysis (LTEA) Assay for Protein phosphatase 2A (PPP2R4) using HepaRG (AID 2283522)
Details: mRNA level, 48 h; actives raise or lower the signal
Description: LTEA_HepaRG is a cell based, multiplexed-readout assay that uses HepaRG, a human liver cell line, with measurements taken at 48 hours after chemical dosing on a 96-well plate.LTEA_HepaRG_PPP2R4 is one of 102 assay component(s) measured in the LTEA HepaRG cell culture assay. It is a marker of Cell proliferation, survival, death.Data from the assay component LTEA_HepaRG_PPP2R4 was analyzed into 1 endpoint. […]
Active and inactive are the calls of the source. The calls were made as follows: active = hit-call score of the fitted dose curve at least 0.9, where 1 is the maximum; inactive = score below 0.9.
Mark one answer only. Choices: label 1 (active), label 0 (inactive)

The examples below pair each entry with its known result.
# COMPOUND, CLASSIFICATION
rows = [
    ("CC[C@H](C)C(=O)O[C@H]1C[C@@H](C)C=C2C=C[C@H](C)[C@H](CC[C@@H]3C[C@@H](O)CC(=O)O3)[C@H]21", "label 0"),
    ("O=C(OC[C@H]1O[C@@H](OC(=O)c2cc(O)c(O)c(OC(=O)c3cc(O)c(O)c(O)c3)c2)[C@H](OC(=O)c2cc(O)c(O)c(OC(=O)c3cc(O)c(O)c(O)c3)c2)[C@@H](OC(=O)c2cc(O)c(O)c(OC(=O)c3cc(O)c(O)c(O)c3)c2)[C@@H]1OC(=O)c1cc(O)c(O)c(OC(=O)c2cc(O)c(O)c(O)c2)c1)c1cc(O)c(O)c(OC(=O)c2cc(O)c(O)c(O)c2)c1", "label 1"),
    ("CCCCC(CC)COC(=O)CCCCCCCCC(=O)OCC(CC)CCCC (centres undefined)", "label 0"),
]

Ask: Entry `CC(C)CCO` : call = ?
Result: label 0

Hey, just so you know, these numbers are from PubChem BioAssay (EPA / NIEHS).
